Each recorded value in this set is attributed to PubChem BioAssay (NCI).

tested on: HCT-15 colon; assay: NCI-60 one-dose screen, 48 h (100 = growth as untreated, 0 = no growth, -100 = all killed); settings: 10 µM unless noted
The panel holds about 83,000 compounds, 20% with a hit somewhere; the sample as a whole holds those more often.
EXPERIMENTAL_ENDPOINT: growth (%)

# COMPOUND, READING_UNIT, OBSERVED_VALUE
rows = [
    ("Cc1ccc2c(c1)sc(-c1ccc(N(C)C)cc1)[n+]2C", "%", 68.7),
    ("CCOC(=O)C1=C(C(=O)c2ccccc2)C(c2cccc([N+](=O)[O-])c2)C(C(=O)c2ccccc2)=C(C(=O)OCC)N1", "%", 66.4),
    ("Nc1ccc(-c2ccc(N)c(S(=O)(=O)O)c2)cc1S(=O)(=O)O", "%", 118),
    ("CC1(C)OCC(COC(c2ccccc2)(c2ccccc2)c2ccccc2)O1 (stereo not given)", "%", 100),
    ("CCCOC(=O)c1nc(N(CC2CCCCC2)C(=O)NC)sc1/N=C/c1ccccc1", "%", -70.3),
    ("COc1cc(OC)c(/C=C/c2c3ccccc3cc[n+]2C)c(OC)c1", "%", 97.9),
    ("Oc1ccc(Br)cc1Sc1cc(Br)ccc1O", "%", 36.6),
    ("S=C(SSC(=S)N1CCOCC1)N1CCOCC1", "%", 91.2),
    ("c1csc(-c2[nH]nc3c2CCc2ccccc2-3)c1", "%", 30.7),
    ("CC(=O)c1c(O)c(C)c(O)c2c1OC1=CC(=O)C(C(C)=O)C(=O)C12C (stereo not given)", "%", 84.4),
    ("Nc1ccc(Oc2ccccc2)c(Cl)c1", "%", 92.6),
    ("Oc1c(C(Nc2ccccc2)c2ccccc2)ccc2cccnc12 (stereo not given)", "%", 29.4),
    ("Nc1ccc(C(=O)/C=C/c2ccccc2)cc1", "%", 87),
    ("OC(c1cc2ccc(C(F)(F)F)cc2c2cc(C(F)(F)F)ccc12)C1CCCCN1 (stereo not given)", "%", -90.4),
    ("NC(=S)Nc1ccc2c(c1)Cc1ccccc1-2", "%", 95.7),
    ("NC(=S)N/N=C/c1ncccc1O", "%", 33.7),
    ("CCC1CCCCN1C(=S)N/N=C(\\C)c1ccccn1 (stereo not given)", "%", 27.3),
    ("CCN(CC)CCNC(Cc1ccccc1)c1ccc(OCc2ccccc2)cc1 (stereo not given)", "%", 30.4),
    ("NNc1ccc(Cl)cc1Cl", "%", 79.8),
    ("O=C(c1ccccc1)N(CCCl)C(=O)N(CCCl)C(=O)c1ccccc1", "%", 99.4),
    ("CC(C)(C)c1ccc(CCO)cc1", "%", 109),
    ("O=C1CSC(=S)N1Cc1cccnc1", "%", 58.3),
    ("Cc1ccc(NC2=CC(=O)C(=O)c3ccccc32)cc1", "%", 11.2),
    ("Fc1ccc(NCCS)cc1", "%", 105),
    ("CCSc1nc2ccccc2o1", "%", 102),
]

###

system: NCI/ADR-RES ovarian; test: NCI-60 one-dose screen, 48 h (100 = growth as untreated, 0 = no growth, -100 = all killed); settings: 10 µM unless noted
Compounds without any hit were thinned out: in the full panel of roughly 83,000, 20% have a hit. *1 amine or outer side, *2 acyl side, *3 side chain or, on linkers, in order; H or OH if unused. Where a SMILES comes first, the peptide text is derived from it. [ ]: non-standard residue; d: D form. The star is where a group is joined. X5 = CCC(=O)CC1CC(C)CC(C(=O)[*:2])N1[*:1]; X4 = CCCCCCCCC(C)C(=O)*; Aib = CC(C)(N)C(=O)O; X6 = CC(CN(C)CCO)N*
Property: growth; scope: individual compounds

# COMPOUND, growth (%)
data = [
    ("O=C(CBr)c1ccc(OC(=O)c2ccccc2)cc1", 101),
    ("Cc1ccccc1NC(=O)Cc1csc2[n+]1C(=O)/C(=C/c1ccc([N+](=O)[O-])cc1)S2", 100),
    ("O=C1C=CC(=O)c2c(O)c(CO)c(CO)c(O)c21", 97.2),
    ("CC1CC(C)(C)OB(OC(C)CC(C)(C)OB2OC(C)CC(C)(C)O2)O1 (stereo unspecified)", 101),
    ("Cc1nn(CCO)c(C)c1N=[N+]([O-])c1c(C)nn(CCO)c1C", 96.1),
    ("O=[N+]([O-])c1ccc(C2N(Cc3ccc(Cl)cc3)CCN2Cc2ccc(Cl)cc2)cc1", 87.6),
    ("Oc1ccc(Br)cc1Sc1cc(Br)ccc1O", 31.4),
    ("COC(=O)c1nc(=S)[nH]c(C(=O)OC)c1C(=O)c1ccc(Cl)c(Cl)c1", 110),
    ("CC1(C)OCC(COC(c2ccccc2)(c2ccccc2)c2ccccc2)O1 (stereo unspecified)", 103),
    ("Nc1nc(-c2ccccc2)nc(N)c1N=O", 78.5),
    ("CC1C(c2ccccc2)OCCN1C(=S)Nc1ccc(S(=O)(=O)N2CCCCC2)cc1 (stereo unspecified)", 92.4),
    ("OC(c1cc2ccc(C(F)(F)F)cc2c2cc(C(F)(F)F)ccc12)C1CCCCN1 (stereo unspecified)", -84.6),
    ("O=C(/C(Cl)=N/O)c1ccc(-c2ccccc2)cc1", 99.9),
    ("O=C1C=C(Cl)C(=O)c2ccccc21", 102),
    ("Cc1cc2nc(CC(=O)c3ccncc3)c(=O)[nH]c2cc1C", 96.8),
    ("CC(C)=CCCC(C)C1=C(O)C(=O)C(C)=CC1=O (stereo unspecified)", 95),
    ("Cc1cc2cccnc2c2ncccc12", 11.2),
    ("Nc1nc(N)c2cc(Sc3cccc(C(F)(F)F)c3)ccc2n1", 17.7),
    ("CCCCCCCCC(C)C(=O)N1CCCC1C(=O)N1C(CC(=O)CC)CC(C)CC1C(=O)NC(C)C(=O)NC(C)(C)C(=O)NC(C)(C)C(=O)NC(C(=O)NC(C)C(=O)NC(C)(C)C(=O)NC(C)(C)C(=O)NC(C)CN(C)CCO)C(C)CC (stereo unspecified) (X4-P[X5]A[Aib][Aib]IA[Aib][Aib]-X6; configuration not given here)", -36.9),
    ("CCN(CC)CCNC(Cc1ccccc1)c1ccc(OCc2ccccc2)cc1 (stereo unspecified)", 76.1),
    ("Fc1ccc(NCCS)cc1", 109),
]
